ASSAY_TARGET: full length human SIRPα v1 with a small beta-gal fragment (ED) fused to its C-terminal, expressed in K562 … (human, UniProt P78324 31-504)
Sequence (P78324 31-504): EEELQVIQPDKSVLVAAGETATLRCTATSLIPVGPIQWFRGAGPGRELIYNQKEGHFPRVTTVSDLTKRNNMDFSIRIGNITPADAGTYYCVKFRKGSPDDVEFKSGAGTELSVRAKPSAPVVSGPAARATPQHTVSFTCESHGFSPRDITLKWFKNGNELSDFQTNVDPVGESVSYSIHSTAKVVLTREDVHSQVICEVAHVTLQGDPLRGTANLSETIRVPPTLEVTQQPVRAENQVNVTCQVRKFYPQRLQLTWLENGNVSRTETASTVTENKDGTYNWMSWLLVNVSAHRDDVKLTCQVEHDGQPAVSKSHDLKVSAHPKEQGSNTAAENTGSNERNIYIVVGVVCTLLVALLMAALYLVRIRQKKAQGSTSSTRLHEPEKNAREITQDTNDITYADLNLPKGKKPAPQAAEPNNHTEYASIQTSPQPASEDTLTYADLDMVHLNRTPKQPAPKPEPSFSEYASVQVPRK
METHOD: cell-based or functional assay
Below: a set of entries, each annotated with reported SHP-1 recruitment (% blocking), Test I.
QUANTITY_MEASURED: SHP-1 recruitment (% blocking), Test I (%)

BINDER | QUANTITY_MEASURED | MEASURE_UNIT | NUMBER
005 (antibody, V domains shown, Mouse monoclonal hybridoma antibody purified on Protein A; also called antibody 005; hybridoma antibody 005) VH: EVKLVESGGGLVQPGGSLSLSCAASGFTFTDYYMSWVRQPPGKALEWLGFIKNEANGYTTESSASVKGRFTISRDNSQSILYLQMNALRAEDSATYYCARYDYYGSNYNWYFDAWGTGTTVTVSS VL: DIVMTQSQKFMSPSVGDRVSITCKASQNVRTAVAWYQQKPGQSPKVLIHLASKRHTGVPDRFTGSGSGTDFTLTISNVQSEDLADYFCLQHWIHPLTFGAGTKLELK | SHP-1 recruitment (% blocking), Test I | % | 71
073 (antibody, V domains shown, Mouse monoclonal hybridoma antibody; also called antibody 073; hybridoma antibody 073) VH: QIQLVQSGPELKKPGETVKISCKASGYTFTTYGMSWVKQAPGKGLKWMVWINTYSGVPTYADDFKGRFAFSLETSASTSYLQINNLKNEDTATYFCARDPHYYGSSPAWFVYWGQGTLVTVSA VL: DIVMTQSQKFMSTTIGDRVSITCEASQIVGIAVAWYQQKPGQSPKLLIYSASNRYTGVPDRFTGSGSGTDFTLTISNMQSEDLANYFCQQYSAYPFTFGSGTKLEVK | SHP-1 recruitment (% blocking), Test I | % | 76.9
025 (antibody, V domains shown, Mouse monoclonal hybridoma antibody; also called antibody 025; hybridoma antibody 025) VH: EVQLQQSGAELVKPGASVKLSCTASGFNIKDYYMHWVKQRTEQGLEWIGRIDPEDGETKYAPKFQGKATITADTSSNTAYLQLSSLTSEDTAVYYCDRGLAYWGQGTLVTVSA VL: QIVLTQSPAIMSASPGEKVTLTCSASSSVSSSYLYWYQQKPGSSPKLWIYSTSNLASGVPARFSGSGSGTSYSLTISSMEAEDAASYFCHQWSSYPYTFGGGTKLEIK | SHP-1 recruitment (% blocking), Test I | % | 83.9

Source: patent US20250270315A1
